Origin of the recorded values: a melting point compilation (Tetko et al.; mined from patent text by program, amines drawn as free bases though some values may be those of a salt)

measurement-label: melting point (°C)

C#CCOc1cc(-n2c(Cl)c(C#N)n(CCC)c2=O)c(F)cc1Cl = 122

(A) CSC(=N)c1cc(Oc2ccc(C(F)(F)F)cc2Cl)ccc1[N+](=O)[O-]
(B) CCC1c2nc[nH]c2CCN1C(=O)NC(C)C (stereo not given)
Hi, I'm comparing A with B and wondering which one has the bigger number for melting point. Any idea? Respond with the label that goes with your answer.
B
(B: 170 °C, A: 103 °C)

* * *

measurement-label: melting point

CC1(C)CCC(C)(C)c2cc(NC(=O)c3ccc(C=O)cc3)ccc21 = 186 °C
CCSc1cccc(-c2nc(=O)c3ccccc3s2)n1 = 161 to 162 °C
CCN(CC)CCN1C(=O)c2cc(OC)c3[nH]c4ccc(O)cc4c3c2C1=O = 226 to 228 °C
O=C(c1cn(Cc2ccccc2Cl)nn1)N1CCCCC1 = 141 to 142 °C
CC(C)c1nc(N(C(C)C)C(C)C)c([N+](=O)[O-])c(N(C(C)C)C(C)C)n1 = 45 °C

Which melting point reading was recorded for the compound "C=CCOc1ccc2c(=O)c(C)c(-c3ccccc3)oc2c1C(=O)C=Cc1cccc(OC)c1" ?
90 to 92 °C

Which melting point reading was recorded for the compound "CC(C)Cc1nn(C)c(=O)c2c(SCCCO)n(Cc3ccccc3)cc12" ?
91 to 92 °C

Which melting point reading was recorded for the compound "CCCOC(=O)Cc1ccc(N[C@@H](CCC(N)=O)C(=O)O)cc1" ?
178 to 179 °C

Which melting point reading was recorded for the compound "CCN(CC)C(=O)Oc1cc(-c2ccccc2)nc2ccc([N+](=O)[O-])cc12" ?
40 °C

Which melting point reading was recorded for the compound "CCOC(=O)C1=C(C)NC(C)=C(C(=O)OCC)C1c1cc2ccccc2s1" ?
167 to 169 °C

* * *

Reported melting point values are given for each entry in this list.

Reference set, count: 4
O=C(O)C1=CC2(CCSCC2)Oc2ccc([N+](=O)[O-])cc21 = 259 to 261 °C
COC(=O)C(=NO)C(=O)N1CCC(c2ccc(OC)c(OC3CCCC3)c2)CC1 = 159 to 160 °C
COc1nccc2c(N)cccc12 = 53 to 57 °C
COC1CC(NC(=O)C(F)(F)F)C(OC)C(C)O1 (stereo unspecified) = 55 to 60 °C

Which melting point reading was recorded for the compound "Cc1cc(Br)ccc1C(=O)NCc1ccccn1" ?
86 to 87.5 °C

Which melting point reading was recorded for the compound "Nc1nc(Cn2c(-c3ccc(Oc4cncnc4)cc3)ccc2-c2ccccc2Cl)ccc1NCCO" ?
78 to 82 °C

* * *

Reported melting point values are given for each entry in this list.

CCCCCCCCOc1ccc(CP(=O)(OC)OC)c2c(CP(=O)(OC)OC)cccc12 = 51 to 52 °C

Which melting point reading was recorded for the compound "O=C(CBr)CCc1ccc(Cl)cc1" ?
51 °C

Which melting point reading was recorded for the compound "C[C@]1(COc2ccc3nc(N4CCC(=Cc5ccc(OC(F)(F)F)cc5)CC4)ccc3c2)Cn2cc([N+](=O)[O-])nc2O1" ?
194 to 196 °C

* * *

measurement-label: melting point

Reference set, count: 2
CCCCOC(=O)Nc1cccc(NC(=O)C=C(C)OC)c1 = 100 °C
Cc1csc(-c2ccc3nnn(Cc4ccc5ncccc5c4)c3n2)c1 = 153 to 156 °C

Which melting point reading was recorded for the molecule CN1C(=O)N(CC(CS(=O)(=O)c2ccc(Oc3ccc(C(F)(F)F)cc3)cc2)N(O)C=O)C(=O)C1(C)C (stereo unspecified) ?
141 to 143 °C

Which melting point reading was recorded for the molecule CN1OCC(C(O)c2cc(C(C)(C)C)c(O)c(C(C)(C)C)c2)C1=O (stereo unspecified) ?
137 to 140 °C

Which melting point reading was recorded for the molecule "CCOC(=O)c1c(N)c(Cl)cc2c1OCO2" ?
77 to 78 °C

Which melting point reading was recorded for the molecule "Cn1c(=O)cnc2cccc(Oc3cc(-c4ccc(C(F)(F)F)cc4)ncn3)c21" ?
158 °C

Which melting point reading was recorded for the molecule "CC(C)(C)Oc1ccc(I)cc1" ?
40 to 41.5 °C

* * *

measurement-label: melting point

OCCc1ccc(OCC2CO2)cc1 (centres undefined) = 56 to 58.5 °C

Please examine the following record next.
Which melting point reading was recorded for the compound O=C1c2cc(O)ccc2OCC1n1ccnc1 (centres undefined) ?
245 to 247 °C

* * *

measurement-label: melting point

Reference set, count: 3
O=C(CN1C(=O)CC1S(=O)(=O)c1ccccc1)NCCCCCCc1ccc(Cl)cc1 (single isomer, unassigned; (-)) = 106 to 109 °C
BrCC=C1c2ccccc2C=Cc2ccccc21 = 87.5 to 89.5 °C
O=C1O[C@@H](Cn2ccnn2)CN1c1ccc(-c2ccc(C3=NOC(CNCCc4ccncc4)C3)nc2)c(F)c1 (stereo not given in full) = 181 °C

Which melting point reading was recorded for the compound "O=C(O)c1ccc(COc2ccc3cc(-c4ccc(-c5ccccc5)n4Cc4ccc(C(F)(F)F)cc4)ccc3c2)c(C(=O)O)c1" ?
250 to 252 °C

Which melting point reading was recorded for the compound "Cn1nc(C(F)(F)C(F)(F)F)cc1O" ?
183 to 188 °C

* * *

Reported melting point values are given for each entry in this list.

Reference set, count: 2
O=c1c(NCCCN(Cc2ccc(F)cc2)c2ccccn2)c(NCc2ccncc2)c1=O = 198 to 201 °C
O=c1[nH]ccc2c1c(O)nc1cc(Cl)ccc12 = 340 to 342 °C

Which melting point reading was recorded for the compound COc1ccc(O[C@@H]2CN(Cc3ccccc3)C[C@H]2O)cc1 (relative stereo) ?
84 to 85 °C

Which melting point reading was recorded for the compound "Cc1c(-c2cccc(O)c2)n(Cc2ccc(OCCN3CCCCC3)cc2)c2ccc(O)cc12" ?
115 to 118 °C

Which melting point reading was recorded for the compound "CC(=Cc1ccc(N(C)C)cc1)C(=O)O" ?
190 to 194 °C

Which melting point reading was recorded for the compound COC1OC(CO)C(O)C(OC)C1O (stereo unspecified) ?
56 to 58 °C

Which melting point reading was recorded for the compound "Cn1c2ccccc2c2ccc3ccccc3c21" ?
167 to 169 °C

Which melting point reading was recorded for the compound "CCN(CC)C1=NC(=O)C(=Cc2cccc(-c3ccc(O)c(C45CC6CC(CC(C6)C4)C5)c3)c2)S1" ?
275 to 277 °C

* * *

measurement-label: melting point

CCn1cc(C(=O)O)c(=O)c2cc(F)c(N3CCCC(CN)C3)nc21 (stereo unspecified) = 120 to 122 °C
O=S(=O)(NCc1ccncc1)c1ccc(I)cc1 = 174 to 176 °C
Cc1cn(C)c2c1C(=O)CC(c1ccccc1)C2 (stereo unspecified) = 155 to 156 °C
O=C1Cc2c(ccc3c2OC(CNCc2ccccc2)CC3)N1 (stereo unspecified) = 128 °C

Which melting point reading was recorded for the molecule "Clc1cccc(Cl)c1CSCc1c(Cl)cccc1Cl" ?
128 to 130 °C

Which melting point reading was recorded for the molecule COc1csc(C(=O)C2C(=O)N(C(N)=O)c3ccc(Cl)cc32)c1 (stereo unspecified) ?
221 to 223 °C

* * *

measurement-label: melting point

C=CC[C@H]1CC(C(=O)OC)=C[C@H](N=[N+]=[N-])[C@H]1OS(C)(=O)=O = 70 to 72 °C

Please examine the following record next.
Which melting point reading was recorded for the molecule CCC1=NC(=NOC(=O)NC)SC1(C)CC (configuration not stated) ?
88 to 90 °C

* * *

measurement-label: melting point

CCN1CCN(c2ccnc3c(NC(=O)c4c(Cl)cccc4Cl)ccc(C)c23)C1=O = 235 to 236 °C
CCOC(=O)C1=C(C)Nc2snc(CCCOCc3ccccc3)c2C1c1cccc([N+](=O)[O-])c1 (stereo not given) = 109 to 110 °C
CCCc1cn(C(C)(C)C(=O)N(C)C)nc1-c1ccccc1Cl = 64 to 66 °C
Clc1ccc(C2(Cn3cncn3)OCCO2)s1 = 117 °C
O=C(NC(CC12CC3CC(CC(C3)C1)C2)Nc1c(Nc2cccnc2)c(=O)c1=O)c1ccccc1Cl (stereo not given) = 224 to 225 °C

Which melting point reading was recorded for the compound CNC1=NS(=O)N=C1NCCCNc1ncc(Br)cc1C (stereo not given) ?
211 to 212 °C

Which melting point reading was recorded for the compound "O=c1[nH]c2ccc(CCN3CCN(c4cc(O)cc5cccnc45)CC3)cc2o1" ?
200 °C

Which melting point reading was recorded for the compound "COC(=O)c1ccc(/C=C/c2nc(-c3ccco3)oc2C)cc1" ?
142 to 143 °C

Which melting point reading was recorded for the compound "CCNCCNC(=O)c1ccnc(F)c1" ?
51 to 52 °C

Which melting point reading was recorded for the compound "Cn1c(C(F)(F)F)nc2c(OCc3ccccc3)cc(Br)cc21" ?
141 to 142 °C

* * *

Reported melting point values are given for each entry in this list.

Which melting point reading was recorded for the compound "O=C1C[C@H]2CN(C(=O)c3ccc(NC(=O)c4ccccc4-c4ccccc4)cc3)c3ccccc3C(=O)N2C1" ?
159 to 169 °C

Which melting point reading was recorded for the compound "COc1cc2c(=O)n(CCOCCO)c3c4cc5c(cc4ncc3c2cc1OC)OCO5" ?
235 °C

Which melting point reading was recorded for the compound "CSc1ccc2ccc3ccccc3c(=O)c2c1" ?
66.5 to 67.5 °C

Which melting point reading was recorded for the compound COC(=O)C1CCN(S(=O)(=O)c2ccc(Cl)c(COc3cccc4c(-n5ccnc5)cc(C)nc34)c2Cl)C1 (stereo unspecified) ?
180 °C
